target: T1, DENV2 D2S10 envelope (E) protein on virions (dengue virus 2 (DENV2), strain D2S10); test: ELISA; details: one partner purified
T1 construct: also called DENV2 virions
# pKd per record follows
In plain terms, pKd is the concentration in mol/L turned into minus its base-10 logarithm.

Some entries whose results are on file:
chimeric human-mouse MAb E28 N297Q (human IgG1, aglycosylated) (antibody, V domains shown, source: HEK-293T, transfected, purified from supernatant (protein A)) VH: QIQLVQSGPELKKPGETVKISCKASGYTFTDYSMHWVKQTPGKGLKWLGWINPKTGEPTYVDDFKGRFAFYLETSSSTAYLQITNLKNEDTATYFCARGYDYYSVDYWGQGTLVTVSS VL: DIQMTQTTSSLSASLGARVTISCRANQDINNYLHWYQQKPDGTIKLLVYYTSGLHSGVPSRFIGSGSGTDYSLTITNLEQEDIATYFCQQGNTLPLTFGAGTKLELK; 8.54
chimeric human-mouse MAb E87 (human IgG1), non-modified (antibody, V domains shown, source: HEK-293T, transfected, purified from supernatant (protein A)) VH: QVQLQQPGADLVRPGTSVKLSCKASGYTFTIYWMHWVKQRPGQGLEWIGVIDPSAGYTNYSQNFKDKATLTVDTSSSTAYMQLNSLTSEDSAVYYCARHGHYFGTSYWYFDVWGTGTTVTVSS VL: DIVMSQSPSSLAVSVGEKVTMRCKSSQSLLYSRNQKNYLAWYQQKPGQSPKVLIYWASTRESGVPDRFTGSGSGTDFTLTISSVKTEDLSVYYCQQYYSYPFTFGSGTKLEIK; 8.97
chimeric human-mouse MAb E18 (human IgG1), non-modified (antibody, V domains shown, source: HEK-293T, transfected, purified from supernatant (protein A)) VH: QIQLVQSGPELKKPGETVKISCKASGYTFTDYSMHWVKQAPGKGLKWMGWFNTETGEPTYADDFKGRFAFSLETSASTAFLQINNLKNEDTATYFCARGGDFYSVDYWGQGTSVTVSS VL: DIQMTQTTSSLSASLGDRVTISCRASQDITNYLNWYQQKPDGTVKLLIYYTSGLHSGVPSRFSGSGSGTDYSLTISNLEQEDIATYFCQQGNTLPPTFGGGTKLEIK; 8.56

Switching to the query record.
Which pKd is listed for chimeric human-mouse MAb E76 N297Q (human IgG1, aglycosylated) (antibody, V domains shown, source: HEK-293T, transfected, purified from supernatant (protein A)) VH: QVTLKESGPGILQSSQTLSLTCSFSGFSLSTSSMGVSWIRQPSGKGLEWLAHIYWDDDKRYSPSLKSRLTISKDTSRNQVFLKITSVENVDSATYYCARKDGYVPYSLDYWGQGISVTVSS VL: DIVMTQSHKFMSTSVGDRVSISCKASQAVGTAVAWYQQKPGQSPKLLIYWASTRHTGVPDRFTGSGSGTDFTLTINNVQSEDLADYFCHQYTSYPLTFGTGTKLELK ?
8.96
